Listing of recorded Ratio IC50 by entry.
- Organism: Homo sapiens
- assay_remarks: Selectivity index, ratio of IC50 for recombinant human MAO-A to IC50 for recombinant human MAO-B

CCN(CC)CCOc1ccccc1/C=C1\COc2ccccc2C1=O | > 2.64
CN(C)CCCOc1ccccc1/C=C1\COc2ccccc2C1=O | > 1

## Task Data request, read-out Ratio IC50, for CN(C)CCOc1ccc(/C=C2\COc3ccccc3C2=O)cc1
## Result 1024

## Task I am curious: what Ratio IC50 value has been reported for CCN(CC)CCCOc1ccc(/C=C2\COc3ccccc3C2=O)cc1 ?
## Result 379

## Task Using the record for CN(CCCOc1ccc(/C=C2\COc3ccccc3C2=O)cc1)Cc1ccccc1 , report its Ratio IC50.
## Result > 114

## Task Suppose we examine the compound CN(C)CCOc1ccccc1/C=C1\COc2ccccc2C1=O ; what Ratio IC50 value has been reported?
## Result > 1

## Task Item under review: CN(C)CCOc1cccc(/C=C2\COc3ccccc3C2=O)c1 . Reported Ratio IC50?
## Result 66.5

## Task Record request: Ratio IC50 value, item O=C1/C(=C/c2ccc(OCCCCCCN3CCN(Cc4ccccc4)CC3)cc2)COc2ccccc21
## Result > 1

## Task Sample O=C1/C(=C/c2ccc(OCCCN3CCN(Cc4ccccc4)CC3)cc2)COc2ccccc21 — what was its Ratio IC50?
## Result > 2.59

## Task Quick check: Ratio IC50 of CN(C)CCCCOc1ccc(/C=C2\COc3ccccc3C2=O)cc1 ?
## Result > 132

## Task Could you tell me which Ratio IC50 is on file for CCN(CCOc1ccc(/C=C2\COc3ccccc3C2=O)cc1)Cc1ccccc1 ?
## Result > 23.3

## Task Which Ratio IC50 is listed for CCN(CC)CCCOc1cccc(/C=C2\COc3ccccc3C2=O)c1 ?
## Result 3.55

## Task So what's the measured Ratio IC50 for this one? CN1CCN(CCCCCCOc2ccc(/C=C3\COc4ccccc4C3=O)cc2)CC1
## Result > 16.1

## Task Recorded Ratio IC50 for O=C1/C(=C/c2ccc(OCCN3CCN(Cc4ccccc4)CC3)cc2)COc2ccccc21 , please?
## Result > 1.03

## Task I have this compound here, CN(CCOc1ccc(/C=C2\COc3ccccc3C2=O)cc1)Cc1ccccc1 , and I need its recorded Ratio IC50.
## Result > 43.8

## Task # get_value(readout='Ratio IC50', item= CCN(CCCCCCOc1ccc(/C=C2\COc3ccccc3C2=O)cc1)Cc1ccccc1 )
## Result > 1

## Task Item under review: CCN(CC)CCCCCCOc1ccc(/C=C2\COc3ccccc3C2=O)cc1 . Reported Ratio IC50?
## Result 13.1

## Task Field request: Ratio IC50 | item: CN(C)CCCOc1ccc(/C=C2\COc3ccccc3C2=O)cc1
## Result > 2280

## Task Fill in the blank: the reported Ratio IC50 of CCN(CC)CCOc1cccc(/C=C2\COc3ccccc3C2=O)c1 is ____.
## Result 97.1

## Task Would you mind telling me what Ratio IC50 value was observed for CN(C)CCCCCCOc1ccc(/C=C2\COc3ccccc3C2=O)cc1 ?
## Result 12.1

## Task Query (compound): CN1CCN(CCCCOc2ccc(/C=C3\COc4ccccc4C3=O)cc2)CC1 ; field requested: Ratio IC50
## Result > 6.1

## Task What value of Ratio IC50 has been recorded for this entry: CCN(CC)CCCCOc1ccc(/C=C2\COc3ccccc3C2=O)cc1
## Result 18.5
